Entry source: patent US9340537B2

Biological target: ABL1 (64-515) (Homo sapiens (Human))
Sequence (P00519 64-515): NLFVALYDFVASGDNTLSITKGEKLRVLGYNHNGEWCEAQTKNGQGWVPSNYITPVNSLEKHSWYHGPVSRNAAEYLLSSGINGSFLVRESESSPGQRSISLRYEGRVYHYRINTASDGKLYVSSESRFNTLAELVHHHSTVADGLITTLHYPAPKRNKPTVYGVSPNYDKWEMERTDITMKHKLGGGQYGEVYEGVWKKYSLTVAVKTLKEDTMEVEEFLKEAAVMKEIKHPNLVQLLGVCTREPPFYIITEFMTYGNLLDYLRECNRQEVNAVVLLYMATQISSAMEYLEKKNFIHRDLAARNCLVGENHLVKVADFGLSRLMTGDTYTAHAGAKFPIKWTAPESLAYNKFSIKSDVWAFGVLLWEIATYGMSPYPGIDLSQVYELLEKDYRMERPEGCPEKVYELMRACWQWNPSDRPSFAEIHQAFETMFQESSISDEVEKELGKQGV
Assay: Radio ABL1 (64-515) radiometric filter-binding kinase assay
Format: biochemical
Settings: 20 μM ATP
pIC50: −log10 of the molar value.
assay.endpoint: pIC50

>  <smiles.code>
Cc1ncc(-c2cc(C(=O)Nc3ccc(OC(F)(F)F)cc3)cnc2N2CC[C@H](CO)C2)s1

>  <assay.endpoint>
pIC50

>  <observed>
> 8.52

$$$$
>  <smiles.code>
O=C(Nc1ccc(OC(F)(F)F)cc1)c1cnc(N2CC[C@@H](O)C2)c(-c2csc(CO)c2)c1

>  <assay.endpoint>
pIC50

>  <observed>
> 8.52

$$$$
>  <smiles.code>
Cc1ncc(-c2cc(C(=O)Nc3ccc(OC(F)(F)F)cc3)cnc2N2CC[C@@H](O)C2)s1

>  <assay.endpoint>
pIC50

>  <observed>
> 8.52

$$$$

Which value of pIC50 has been reported for `CN(C)[C@H]1CN(c2ncc(C(=O)Nc3ccc(OC(F)(F)Cl)cc3)cc2-c2ccn[nH]2)C[C@@H]1O` in the records?
> 10.00

# get_value(readout='pIC50', item= `O=C(Nc1ccc(OC(F)(F)F)cc1)c1cnc(N2CC[C@@H](O)C2)c(-c2cncs2)c1` )
8.28
